Test system: AR mRNA
protocol-description: AR mRNA in liver, heart, skeletal muscle, kidney, prostate of cynomolgus monkeys
Assay type: in vivo
reported-conditions: cynomolgus monkey, 40 mg/kg subcutaneously, weeks 1 to 6, Skeletal Muscle
Oligonucleotides are written 5' to 3', each unit as a sugar letter and its base; * is a phosphorothioate linkage, no mark a phosphodiester; rarer units and linkages stand in square brackets, end groups in braces. Plain capitals give the bases only. e = 2'-O-(2-methoxyethyl) (MOE); k = constrained ethyl (cEt); [5mC] = 5-methylcytosine; d = 2'-deoxy (DNA)
Measured Percent Inhibition of AR mRNA relative to the PBS control, Skeletal Muscle, listed per entry.
Report the figure in % without appending any unit label.

Recorded Percent Inhibition of AR mRNA relative to the PBS control, Skeletal Muscle, per entry:
INSERT INTO assay_data (substance, tgt, unit_abbrev, recorded_value) VALUES
  ('584163 (kG*kA*kA*d[5mC]*dA*dT*dT*dA*dT*dT*dA*dG*dG*k[5mC]*kT*kA) [compound 584163]', 'AR mRNA', '%', 73),
  ('579671 (antisense eT*kT*kG*eA*kT*kT*dT*dA*dA*dT*dG*dG*dT*kT*kG*k[5mC]) [compound 579671]', 'AR mRNA', '%', 31);

Turning now to a further substance:
Req: Need Percent Inhibition of AR mRNA relative to the PBS control, Skeletal Muscle, item 583918 (kA*kG*kT*d[5mC]*dG*d[5mC]*dG*dA*d[5mC]*dT*d[5mC]*dT*dG*kG*kT*kA) [compound 583918]
Resp: 74

====

System: AR mRNA
protocol-description: Dose-dependent antisense inhibition of human AR in HuVEC cells (electroporation, qRT-PCR RTS3559, IC50)
Type: cell-based
reported-conditions: 500.0 nM; HuVEC, ~16 h; Table 8
Description: After a treatment period of approximately 16 hours, RNA was isolated from the cells and AR mRNA levels were measured by quantitative real-time PCR. Human AR primer probe set RTS3559 was used to measure mRNA levels. AR mRNA levels were adjusted according to total RNA content, as measured by RIBOGREEN®. […] After a treatment period of approximately 16 hours, RNA was isolated from the cells and AR mRNA levels were measured by quantitative real-time PCR. […]
Oligonucleotides are written 5' to 3', each unit as a sugar letter and its base; * is a phosphorothioate linkage, no mark a phosphodiester; rarer units and linkages stand in square brackets, end groups in braces. Plain capitals give the bases only. e = 2'-O-(2-methoxyethyl) (MOE); k = constrained ethyl (cEt); [5mC] = 5-methylcytosine; d = 2'-deoxy (DNA)
metric: percent inhibition of AR
Could you kindly put the unit after your number?

Req: Need percent inhibition of AR, item 569216 (antisense eT*kG*kA*kT*dT*dT*dA*dA*dT*dG*dG*dT*kT*kG*k[5mC]*eA) [compound 569216]
Resp: 91%

Req: Another: 569222 (antisense eT*eT*kG*kA*kT*dT*dT*dA*dA*dT*dG*dG*dT*kT*kG*k[5mC]) [compound 569222]
Resp: 91%

Req: Another: 560098 (kT*kG*kA*dT*dT*dT*dA*dA*dT*dG*dG*dT*dT*kG*k[5mC]*kA; further chemistry not given here) [compound 560098]
Resp: 89%

====

System: prostate-specific antigen (PSA) mRNA
protocol-description: PSA mRNA levels in LMR20 cells
Format: cell-based, human
reported-conditions: LMR20 cells, no AR agonist, ASO 5.0 μM
Oligonucleotides are written 5' to 3', each unit as a sugar letter and its base; * is a phosphorothioate linkage, no mark a phosphodiester; rarer units and linkages stand in square brackets, end groups in braces. Plain capitals give the bases only. e = 2'-O-(2-methoxyethyl) (MOE); l = locked nucleic acid (LNA); k = constrained ethyl (cEt); [5mC] = 5-methylcytosine; d = 2'-deoxy (DNA)
metric: PSA mRNA levels (% baseline value) of cells without AR agonist treatment
Report the figure in % baseline value without appending any unit label.

INSERT INTO results (substance, tgt, unit_abbrev, recorded_value) VALUES
  ('549458 (kG*kT*kT*dG*dA*dT*dT*dT*dA*dA*dT*dG*dG*kT*kT*kG) [compound 549458]', 'prostate-specific antigen (PSA) mRNA', '% baseline value', 72),
  ('554221 (ACCAAGTTTCTTCAGC; sugars from the 5'' end l3 d10 l3, all phosphorothioate, methylation of C not given here) [compound 554221]', 'prostate-specific antigen (PSA) mRNA', '% baseline value', 87),
  ('560131 (antisense kT*kT*kG*dA*dT*dT*dT*dA*dA*dT*dG*dG*kT*kT*kG*e[5mC]) [compound 560131]', 'prostate-specific antigen (PSA) mRNA', '% baseline value', 71);

Turning now to a further substance:
Req: Need PSA mRNA levels (% baseline value) of cells without AR agonist treatment, item 569236 (antisense eT*kG*kA*kT*dT*dT*dA*dA*dT*dG*dG*kT*kT*kG*e[5mC]*eA) [compound 569236]
Resp: 73

====

Test system: AR mRNA
protocol-description: Dose-dependent antisense inhibition of human AR in HuVEC cells (electroporation, qRT-PCR RTS3559, IC50)
Type: cell-based
reported-conditions: Table 36; HuVEC, electroporation, approximately 16 hours
Oligonucleotides are written 5' to 3', each unit as a sugar letter and its base; * is a phosphorothioate linkage, no mark a phosphodiester; rarer units and linkages stand in square brackets, end groups in braces. Plain capitals give the bases only. k = constrained ethyl (cEt); [5mC] = 5-methylcytosine; d = 2'-deoxy (DNA)
Measured IC50, listed per entry.
Report the figure in nM without appending any unit label.

Recorded IC50, per entry:
INSERT INTO results (substance, metric, recorded_value) VALUES
  ('549458 (kG*kT*kT*dG*dA*dT*dT*dT*dA*dA*dT*dG*dG*kT*kT*kG) [compound 549458]', 'IC50', 230),
  ('584242 (k[5mC]*k[5mC]*kA*dT*dT*dT*dG*dT*dG*d[5mC]*d[5mC]*dA*dA*kA*k[5mC]*k[5mC]; antisense) [compound 584242]', 'IC50', 270),
  ('584263 (kT*kA*kG*dG*dG*dT*dT*dT*dG*dG*dT*d[5mC]*dA*kG*kA*kA; antisense) [compound 584263]', 'IC50', 340);

Turning now to a further substance:
Req: Need IC50, item 584468 (k[5mC]*kA*kT*dT*dG*dT*dA*d[5mC]*dT*dA*dT*dG*d[5mC]*k[5mC]*kA*kG) [compound 584468]
Resp: 370

====

reported-conditions: cynomolgus monkey, in vivo, sc, 40 mg/kg
Measured Albumin, listed per entry.
Report the figure in g/dL without appending any unit label.

Req: Need Albumin, item ISIS 583918: antisense compound targeted to human AR (AGTCGCGACTCTGGTA; 3-10-3 (S)-cEt gapmer, further chemistry not given here)
Resp: 4.1

Req: Another: GATTTAATGGTTGCAA (cEt gapmer chemistry, further chemistry not given here) [ISIS 586124]
Resp: 3.9

Req: Another: ISIS 584269: antisense compound targeted to human AR (CCTTATGGATGCTGCT; 3-10-3 (S)-cEt gapmer, further chemistry not given here)
Resp: 4.0

Req: Another: TGATTTAATGGTTGCA [ISIS 569213] (cEt/MOE gapmer chemistry, further chemistry not given here)
Resp: 3.7

Req: Another: TGATTTAATGGTTGCA [ISIS 569221] (cEt/MOE gapmer chemistry, further chemistry not given here)
Resp: 4.0

====

Tested on: AR mRNA
protocol-description: Dose-dependent antisense inhibition of human AR in HuVEC cells (electroporation, qRT-PCR RTS3559, IC50)
Format: cell-based
reported-conditions: HuVEC, ~16 h; Table 6
Oligonucleotides are written 5' to 3', each unit as a sugar letter and its base; * is a phosphorothioate linkage, no mark a phosphodiester; rarer units and linkages stand in square brackets, end groups in braces. Plain capitals give the bases only. e = 2'-O-(2-methoxyethyl) (MOE); k = constrained ethyl (cEt); [5mC] = 5-methylcytosine; d = 2'-deoxy (DNA)
metric: pIC50
Scale: negative log10 of molar concentration, which is what pIC50 denotes.

Recorded pIC50, per entry:
INSERT INTO measurements (substance, metric, recorded_value) VALUES
  ('560137 (antisense TTGATTTAATGGTTGC; all C 5-methyl, all phosphorothioate, sugars by position not given here; further chemistry not fully specified) [compound 560137]', 'pIC50', 7.00),
  ('560071 (eT*eG*eG*eT*eT*dG*dA*dT*dT*dT*dA*dA*dT*dG*dG*eT*eT*eG*e[5mC]*eA) [compound 560071]', 'pIC50', 6.40),
  ('560098 (kT*kG*kA*dT*dT*dT*dA*dA*dT*dG*dG*dT*dT*kG*k[5mC]*kA; further chemistry not given here) [compound 560098]', 'pIC50', 7.00);

Req: Need pIC50, item 549459 (kA*kT*kG*dG*dT*dT*dG*dA*dT*dT*dT*dA*dA*kT*kG*kG) [compound 549459]
Resp: 7.00

Req: Another: 549458 (kG*kT*kT*dG*dA*dT*dT*dT*dA*dA*dT*dG*dG*kT*kT*kG) [compound 549458]
Resp: 7.00

Req: Another: 549457 (kT*kT*kG*dA*dT*dT*dT*dA*dA*dT*dG*dG*dT*kT*kG*k[5mC]) [compound 549457]
Resp: 7.52

Req: Another: 560100 (antisense kT*kG*kG*dT*dT*dG*dA*dT*dT*dT*dA*dA*dT*kG*kG*kT) [compound 560100]
Resp: 7.00

Req: Another: 560099 (kG*kG*kT*dT*dG*dA*dT*dT*dT*dA*dA*dT*dG*kG*kT*kT) [compound 560099]
Resp: 7.00
